Target: Adenosine receptor A2a (Homo sapiens)
Sequence (P29274 whole entry): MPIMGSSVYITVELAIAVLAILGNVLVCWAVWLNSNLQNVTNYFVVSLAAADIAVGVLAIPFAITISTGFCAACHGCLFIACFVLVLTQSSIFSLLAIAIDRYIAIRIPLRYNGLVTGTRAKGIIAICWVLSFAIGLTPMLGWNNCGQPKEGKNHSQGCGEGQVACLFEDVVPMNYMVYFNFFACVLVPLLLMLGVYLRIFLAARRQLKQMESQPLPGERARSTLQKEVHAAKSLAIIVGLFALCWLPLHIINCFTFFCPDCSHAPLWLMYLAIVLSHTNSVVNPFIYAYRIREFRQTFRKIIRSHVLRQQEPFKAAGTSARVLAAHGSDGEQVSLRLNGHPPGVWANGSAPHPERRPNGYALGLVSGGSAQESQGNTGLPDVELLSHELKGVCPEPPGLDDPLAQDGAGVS
Test: Displacement of [3H]SCH-58261 from human Adenosine A2A receptor expressed in HEK293 cells; range 108-163
Format: cell-based
property-measured: pKi
A value of pKi is the negative decimal logarithm of a concentration given in moles per litre.

Per the records, this compound ( CCn1cc2c(nc(NC(=O)Nc3ccccc3OC)n3nc(-c4ccco4)nc23)n1 ) has pKi equal to 6.88

###

Biological target: Adenosine receptor A2b (Homo sapiens, UniProt P29275)
Sequence (P29275 whole entry): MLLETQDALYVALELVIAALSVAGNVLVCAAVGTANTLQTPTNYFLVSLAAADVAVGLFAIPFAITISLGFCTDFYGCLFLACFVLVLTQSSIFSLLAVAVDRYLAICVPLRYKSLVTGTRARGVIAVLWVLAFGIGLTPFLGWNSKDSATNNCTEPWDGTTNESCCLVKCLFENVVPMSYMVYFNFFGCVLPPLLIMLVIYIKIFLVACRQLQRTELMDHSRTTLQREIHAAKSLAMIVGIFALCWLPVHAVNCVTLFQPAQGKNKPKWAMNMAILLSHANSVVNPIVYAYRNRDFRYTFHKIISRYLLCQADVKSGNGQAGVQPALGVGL
Test: Displacement of [3H]-DPCPX from human Adenosine A2B receptor expressed in HEK293 cells; range 107-172
Format: cell-based
property-measured: pKi
Recall that pKi is obtained by taking minus log10 of the concentration measured in molar.

Measured pKi of CCCCn1cc2c(nc(NC(=O)Nc3ccc(F)cc3)n3nc(-c4ccco4)nc23)n1 : 6.87
